Listing: krel = kobs,NTP*/kobs,NTP of selected compounds
# Test system: 10DM24-C44T mutant deoxyribozyme
# Procedure text: Ligation of NTP substrate with 10DM24 variant in which the terminal P4 nucleotide is changed C→T, cofactor RΔ
# Assay type: biochemical
# Experimental conditions: standard incubation conditions; relative to ATP
// no unit, no text: just the number

Worked set:
{"Compound": "Nc1ncnc2c1ncn2[C@@H]1O[C@H](COP(=O)(O)OP(=O)(O)OP(=O)(O)O)[C@@H](O)[C@@H]1O [ara-ATP, arabino-ATP]", "krel = kobs,NTP*/kobs,NTP": 0.50}
{"Compound": "Nc1ncnc2c1ncn2[C@H]1CC[C@@H](COP(=O)(O)OP(=O)(O)OP(=O)(O)O)O1 [ddATP]", "krel = kobs,NTP*/kobs,NTP": 0.87}
{"Compound": "Nc1ncnc2c1ncn2[C@H]1C[C@H](O)[C@@H](COP(=O)(O)OP(=O)(O)OP(=O)(O)O)O1 [dATP]", "krel = kobs,NTP*/kobs,NTP": 0.50}

Look up krel = kobs,NTP*/kobs,NTP for this compound: Nc1nc(N)c2ncn(C3OC(COP(=O)(O)OP(=O)(O)OP(=O)(O)O)C(O)C3O)c2n1 (stereo not drawn) [DTP]
4.0

###

# Test system: 10DM24-C44T mutant deoxyribozyme
# Procedure text: Ligation of NTP substrate with 10DM24 variant in which the terminal P4 nucleotide is changed C→T, cofactor RΔ
# Assay type: biochemical
# Experimental conditions: enhanced incubation conditions, 3 h
Answer 0 (no) if ligation yield %, 3 h is under 60%, and 1 (yes) if it is 60% or more.

Below, 4 compounds whose answers are already recorded.
{"Compound": "Nc1nc(N)c2ncn(C3OC(COP(=O)(O)OP(=O)(O)OP(=O)(O)O)C(O)C3O)c2n1 (centres unmarked)", "Qualitative label": "1 (yes)"}
{"Compound": "Nc1ncc2ncn([C@H]3C[C@H](O)[C@@H](COP(=O)(O)OP(=O)(O)OP(=O)(O)O)O3)c2n1", "Qualitative label": "0 (no)"}
{"Compound": "Nc1ncnc2c1ncn2[C@@H]1O[C@H](COP(=O)(O)OP(=O)(O)OP(=O)(O)O)[C@@H](O)[C@H]1O", "Qualitative label": "1 (yes)"}
{"Compound": "Nc1ncnc2c1ncn2[C@H]1C[C@H](O)[C@@H](COP(=O)(O)OP(=O)(O)OP(=O)(O)O)O1", "Qualitative label": "1 (yes)"}

Kindly consider the entry below.
Has Nc1ncnc2c1ncn2[C@@H]1O[C@H](COP(=O)(O)OP(=O)(O)OP(=O)(O)O)[C@@H](O)[C@@H]1O a recorded ligation yield %, 3 h greater than or equal to 60%?
0 (no)
